Would you mind telling me the reported cell number change of each entry?
Assay: qHTS Assay for Lipid Storage Modulators in Drosophila S3 Cells;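 as to cell number change: cells counted by Cell Tracker Red CMTPX staining in the red channel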
Settings: BODIPY lipid droplet fluorescence, 18-24 h, cells fed with added oleic acid; measured here: cell count max response
The whole screen tested about 320,000 compounds, of which about 2,100 (0.66%) were called active. Roughly 53% stayed inconclusive and do not appear here. The full list was thinned out, with actives kept by preference.
Numbers only, in %.

Would you please look over these solved cases?
For this compound ( Cc1cccc(C)c1NC(=O)CNC(=O)C1CCCN(C(=O)c2ccc(Cl)cc2)C1 (configuration not stated) ), measured cell number change is 1.48

Lab note: CCOC(=O)CC(=O)CSc1nc2c(sc(=S)n2-c2ccccc2)c(=O)[nH]1 gave cell number change of 3.4

Entry under test: CC(C)(C)Cc1nnc(NS(=O)(=O)c2ccc(F)cc2)s1 . Its cell number change was -2.36

# return cell number change for each item in the list
1. N#C/C(=C\c1c(N2CCCCCC2)nc2ccccn2c1=O)C(N)=O
2. CN1CCN(CC(=O)Nc2nc(-c3c[nH]c4ccccc34)cs2)CC1
3. Cc1cc(C)c(S(=O)(=O)Nc2nnc(CC(C)C)s2)c(C)c1
4. O=C(O)c1ccc(-n2nnnc2Oc2cccc3cccnc23)cc1
5. CC(=O)CCc1oc2ccc(C)cc2c1-c1ccccc1
6. CCOC(=O)C1CCN(C(=O)c2ccc(N3CCCC3=O)cc2)CC1
7. COC(=O)CN1C(=O)NC2(CCCc3ccccc32)C1=O (configuration not stated)
8. Cc1cc(C)c2[nH]c3nc(SCC(=O)O)nnc3c2c1

Result:
[22.6, -11.4, -5.67, -14.4, 1.81, 2.94, 1.11, 15.4]

Look up cell number change for the entries below, preserving their order.
1. COCc1nnc(NS(=O)(=O)c2ccc([N+](=O)[O-])cc2)s1
2. CCc1ccc(CN(C(=O)c2oc3ccccc3c2C)C2CCS(=O)(=O)C2)cc1 (configuration not stated)
3. Cc1ccc(OCC(=O)N2CCN(C(=O)Cc3ccccc3)CC2)cc1

Result:
1. 7.28
2. 23.1
3. 24.1

----------
Test: qHTS Assay for Lipid Storage Modulators in Drosophila S3 Cells
Settings: BODIPY lipid droplet fluorescence, 18-24 h, cells fed with added oleic acid; series mostly up to 46.1 µM
The campaign covered roughly 320,000 compounds. About 2,100 (0.66%) were called active. Roughly 53% stayed inconclusive and do not appear here. The call rests on the fitted dose curve; in most records, active means well fitted inhibition curve with a large enough effect in the signal ratio, with a control signal flat (not every such curve was filed as active); inconclusive means small, poorly fitted or top-dose-only effect, or effect the other way, or a change in a side signal; inactive means flat fitted curve, though single readings scatter; the % refers to the signal ratio. The sample as a whole holds a higher share of actives than the screen did.
Output constraint: value belongs to YES = active, NO = inactive

Example entries begin here.
Request: Call for entry O=C(c1cccc(Cl)c1)N1CCCC(C(=O)N2CCCCCC2)C1 (configuration not stated) :
Result: NO

Request: Which result was noted for this molecule in the test: COC(=O)CCCCCCCCCC[N+]1(C)CCCCC1
Result: NO

Continuing:
Request: Hi, sorry to bother you, what did the test record for C[N+]1(CCCCSc2ccc(O)cc2)CCCCC1 ?
Result: YES

Request: Name the outcome recorded for CC(=O)N1CC(C)Sc2ccc(S(=O)(=O)NCCc3ccc(C)cc3)cc21 (configuration not stated) in the assay.
Result: YES

Request: For COc1ccc(-c2csc3ncnc(N4CCN(c5ccc(OC)cc5)CC4)c23)cc1 , which call appears in the assay record?
Result: NO

----------
Experiment: qHTS Assay for Lipid Storage Modulators in Drosophila S3 Cells;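 as to cell number change: cells counted by Cell Tracker Red CMTPX staining in the red channel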
Details: BODIPY lipid droplet fluorescence, 18-24 h, cells fed with added oleic acid; measured here: cell count max response
In all, about 320,000 compounds went through this assay and about 2,100 (0.66%) were called active. Another 53% or so got no clear call; they are omitted. What follows is part of a selection rich in actives, with near analogues and random picks from the rest.
Would you kindly list cell number change for each of these compounds?
One number for each entry, in %.

These recorded examples may help you get a feel for the data.
// field: cell number change; key: O=C(COC(=O)C1CSC2(c3ccc(F)cc3)CCC(=O)N12)NC(=O)NC1CCCC1 (stereo unspecified) ; value = 8.51

Entry Cc1onc(-c2ccccc2Cl)c1C(=O)N1CCC(C)CC1 — recorded cell number change = -10.5

Record summary for COc1ccc(-c2cc(C(=O)c3c(N)n(C)c(=O)n(C)c3=O)c3ccccc3n2)cc1 : reported cell number change = 0.639

For this compound ( CC(C)Oc1ccc(CNC(=O)Cn2c(=O)c3cccn3c3cccnc32)cc1 ), measured cell number change is -16.2

Given item CCCC(=O)Nc1c(-c2ccccc2Cl)c(=O)c2ccccc2n1C , the value recorded as its cell number change is 21.4

cell number change reported for this compound O=C(NC12CC3CC(CC(C3)C1)C2)c1ccc(Br)o1 : -22.8

List cell number change for every entry below, keeping the order given.
1. Cc1c(NC(=O)CSCc2c(F)cccc2Cl)c(=O)n(-c2ccccc2)n1C
2. C/C(CCc1ccco1)=N/NC(=O)CCC(=O)Nc1cccc(Cl)c1
3. O=C(C1CSC2(c3ccc(F)cc3)CCC(=O)N12)N1CCCCCC1 (stereo unspecified)

Result:
[19, 0.649, -5.6]

Can you give me cell number change for all of these, one by one?
1. CCCCOc1ccc(C(O)(CCN2CCOCC2)c2ccccc2)cc1 (stereo unspecified)
2. Cc1ccc(C(=O)c2nc(C(=O)NCCO)nc3ccccc23)cc1

Result:
-14.2
10.6
